Reference source for all entries: PubChem BioAssay (NCI)

Tested on: SK-OV-3 ovarian
Experiment: NCI tumour cell line growth inhibition, 48 h
measurement-type: TGI

SK-OV-3 ovarian assay, compound CCCCOCc1cc(CN2CCN(C)CC2)c(O)c2ncccc12 , recorded TGI = > 100 µM

SK-OV-3 ovarian assay, compound Cc1cnc2c(c1)C(=O)C1=C(OC(C)(C)CC1O)C2=O (stereo unspecified) , recorded TGI = 36.5 µM

SK-OV-3 ovarian assay, compound O=S(=O)([O-])[O-].[Cl-].[NH2-].[NH2-].[NH2-].[NH2-].[Ru+3].c1ccncc1 , recorded TGI = > 100 µM

SK-OV-3 ovarian assay, compound NCCOc1ccccc1/C=C1\c2ccccc2-c2ccc([N+](=O)[O-])cc21 , recorded TGI = 3.13 µM

SK-OV-3 ovarian assay, compound O=[N+]([O-])/C(C(Cl)=C(Cl)Cl)=C(\Nc1ccccc1)n1nnc2ccccc21 , recorded TGI = > 100 µM

SK-OV-3 ovarian assay, compound CCOc1ccc(N=NS(=O)(=O)O)cc1 , recorded TGI = > 100 µM
